SYSTEM_TESTED: Mcl-1/Bim interaction (recombinant human Mcl-1 residues 171-327) (Homo sapiens (Human))
Sequence (Q07820 171-327): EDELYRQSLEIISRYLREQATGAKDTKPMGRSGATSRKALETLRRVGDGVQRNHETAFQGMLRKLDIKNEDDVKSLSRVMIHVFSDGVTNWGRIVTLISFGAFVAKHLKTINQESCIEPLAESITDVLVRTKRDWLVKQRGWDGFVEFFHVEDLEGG
METHOD_NOTES: Cell Free Mcl-1:Bim Affinity Assay (Mcl-1 HTRF)
RUN_PARAMETERS: TR-FRET, 0.1 nM Mcl-1(171-327), 0.05 nM biotin-Bim(51-76)
Procedure: Cell Free Mcl-1:Bim Affinity Assay (Mcl-1 HTRF) The inhibition of the Mcl-1/Bim interaction was measured using a time-resolved fluorescence resonance energy transfer (TR-FRET) assay. […] The reaction plates were further incubated overnight and then were read on an Envision® multimode reader (PerkinElmer). Fluorescence signals were measured at 620 nm (40-nm bandwidth) and 665 nm (7.5-nm bandwidth) with a 60 μs delay after excitation at 320 nm (75-nm bandwidth). […]
METRIC_NAME: pIC50
Formally, pIC50 is defined as -log10 of the concentration c, with c in mol/L.

# annotated cases, reported pIC50 shown
{"columns": ["COMPOUND", "SYSTEM_TESTED", "pIC50"],
 "data": [
  ["C[C@H]([C@H]1CCC[C@H](C)[C@@H](C)S(=O)(=O)NC(=O)c2ccc3c(c2)N(C[C@@H]2CC[C@H]21)C[C@@]1(CCCc2cc(Cl)ccc21)CO3)N1CCOCC1 (single isomer, unassigned) [Example 72]", "Mcl-1/Bim interaction (recombinant human Mcl-1 residues 171-327) (Homo sapiens (Human))", 9.07],
  ["C[C@@H]1[C@@H](C)CCC[C@H](CN2CCN3CCNC[C@@H]3C2)[C@@H]2CC[C@H]2CN2C[C@@]3(CCCc4cc(Cl)ccc43)COc3ccc(cc32)C(=O)NS1(=O)=O (stereo in doubt)", "Mcl-1/Bim interaction (recombinant human Mcl-1 residues 171-327) (Homo sapiens (Human))", 9.08],
  ["CC[C@@H]1CCCC[C@H](CO)[C@@H]2CC[C@H]2CN2C[C@@]3(CCCc4cc(Cl)ccc43)COc3ccc(cc32)C(=O)NS1(=O)=O (single isomer, unassigned) [Example 85]", "Mcl-1/Bim interaction (recombinant human Mcl-1 residues 171-327) (Homo sapiens (Human))", 9.17]
]}

Can you look up the measured pIC50 of C[C@@H]1[C@@H](C)CCC[C@H](C=O)[C@@H]2CC[C@H]2CN2C[C@@]3(CCCc4cc(Cl)ccc43)COc3ccc(cc32)C(=O)NS1(=O)=O for me?
9.26
